All values here come from patent US20130071854A1.

Target: ISOC1 (Homo sapiens, UniProt Q96CN7)
Construct: endogenous in cells
Sequence (Q96CN7 whole entry): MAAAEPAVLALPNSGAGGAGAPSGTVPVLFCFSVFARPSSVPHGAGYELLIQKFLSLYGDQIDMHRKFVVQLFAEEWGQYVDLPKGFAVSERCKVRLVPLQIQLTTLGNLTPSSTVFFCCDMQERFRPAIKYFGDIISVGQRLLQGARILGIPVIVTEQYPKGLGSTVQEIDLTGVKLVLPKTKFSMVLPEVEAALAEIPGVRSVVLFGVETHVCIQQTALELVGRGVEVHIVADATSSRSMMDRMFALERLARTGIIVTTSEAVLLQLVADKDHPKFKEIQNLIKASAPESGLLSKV
Assay: Competition binding assay in cell lysate, affinity matrix, MS
Conditions: read-out: IC50
READOUT: IC50

Lab note: need IC50 with ISOC1 (Homo sapiens, UniProt Q96CN7) for entry "Nc1ccccc1NC(=O)c1ccc(CNC(=O)OCc2cccnc2)cc1" , please look it up.
≥ 300 µM

====

Target: PPP4C (Homo sapiens, UniProt P60510)
Construct: endogenous in cells
Sequence (P60510 whole entry): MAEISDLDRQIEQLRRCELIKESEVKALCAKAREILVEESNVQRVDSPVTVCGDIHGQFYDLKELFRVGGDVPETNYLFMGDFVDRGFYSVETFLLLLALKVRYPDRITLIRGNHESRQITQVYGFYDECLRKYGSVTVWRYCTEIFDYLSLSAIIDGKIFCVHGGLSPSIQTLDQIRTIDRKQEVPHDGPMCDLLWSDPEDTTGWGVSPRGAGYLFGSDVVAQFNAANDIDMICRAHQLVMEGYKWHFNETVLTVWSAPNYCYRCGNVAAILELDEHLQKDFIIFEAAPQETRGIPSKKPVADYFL
Test: Competition binding assay in cell lysate, affinity matrix, MS
Conditions: IC50, PPP4C; mix of Jurkat and Ramos cell lysates
READOUT: pIC50
API: returns pIC50 as number; meaning -log10 of concentration in mol/L.

Give the measured pIC50 of O=C(CCCCCCC(=O)Nc1ccccc1)NO [SAHA, suberoylanilide hydroxamic acid] .
5.00

====

Kd values, listed per item
Molecular target: HDAC8 (Homo sapiens, UniProt Q9BY41)
Construct: used to probe endogenous HDACs in K562 whole cell extracts; endogenous in cells
Sequence (Q9BY41 whole entry): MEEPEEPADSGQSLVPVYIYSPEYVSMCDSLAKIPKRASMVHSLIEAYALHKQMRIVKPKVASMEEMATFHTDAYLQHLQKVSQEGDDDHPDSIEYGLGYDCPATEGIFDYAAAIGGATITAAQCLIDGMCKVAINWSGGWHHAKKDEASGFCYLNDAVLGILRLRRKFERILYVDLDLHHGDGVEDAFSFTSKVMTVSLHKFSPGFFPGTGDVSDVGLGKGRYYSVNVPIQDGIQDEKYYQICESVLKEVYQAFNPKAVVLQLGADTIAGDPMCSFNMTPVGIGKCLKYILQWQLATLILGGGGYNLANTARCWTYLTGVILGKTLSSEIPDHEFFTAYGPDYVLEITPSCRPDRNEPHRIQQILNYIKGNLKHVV
Assay: Chemoproteomic binding profiling, K562 cell extract, SAHA/ITF2357 probe matrix (Kd app)
Settings: protein HDAC8; class I HDAC

1) CCCCOc1ccc(CC(=O)NO)cc1	243 µM

Would you kindly look at the next entry?
Give the measured Kd of "Nc1ccccc1NC(=O)CCCCCCC(=O)Nc1ccccc1" .
> 85 µM

====

Molecular target: Sin3 complex (Homo sapiens, UniProt Q13547+Q92769)
Assay: Chemoproteomic binding profiling, K562 cell extract, SAHA/ITF2357 probe matrix (Kd app)
Conditions: protein SIN3B, read-out: Kd^app SIN3B
READOUT: Kd

Give the measured Kd of "CCCCOc1ccc(CC(=O)NO)cc1" .
> 59.7 µM

====

Molecular target: HSPD1 (Homo sapiens)
Construct: endogenous in cells
Sequence (P10809 27-573): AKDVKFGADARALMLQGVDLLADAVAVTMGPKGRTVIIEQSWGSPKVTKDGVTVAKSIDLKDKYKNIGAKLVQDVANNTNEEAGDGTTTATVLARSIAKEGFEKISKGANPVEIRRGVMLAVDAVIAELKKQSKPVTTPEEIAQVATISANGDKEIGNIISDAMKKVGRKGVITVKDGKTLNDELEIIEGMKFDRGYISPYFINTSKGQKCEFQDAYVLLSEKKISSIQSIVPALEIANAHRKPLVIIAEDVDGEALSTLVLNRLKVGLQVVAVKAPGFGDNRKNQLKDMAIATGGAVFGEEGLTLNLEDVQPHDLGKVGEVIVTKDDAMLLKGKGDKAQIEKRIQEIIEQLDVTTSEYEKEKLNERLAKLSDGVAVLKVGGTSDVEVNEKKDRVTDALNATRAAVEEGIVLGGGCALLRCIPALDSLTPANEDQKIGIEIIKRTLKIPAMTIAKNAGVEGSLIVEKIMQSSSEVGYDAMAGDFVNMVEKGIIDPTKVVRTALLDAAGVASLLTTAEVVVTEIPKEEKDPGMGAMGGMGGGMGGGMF
Assay: Competition binding assay in cell lysate, affinity matrix, MS
Conditions: IC50, HSPD1; mix of Jurkat and Ramos cell lysates
READOUT: IC50
Could you give the number and then its unit, please?

Give the measured IC50 of O=C(CCCCCCC(=O)Nc1ccccc1)NO [SAHA, suberoylanilide hydroxamic acid] .
10 µM

====

Test system: NuRD complex
Assay: Chemoproteomic binding profiling, K562 cell extract, SAHA/ITF2357 probe matrix (Kd app)
Set-up: species or system human
Settings: read-out: Kd^app CHD4
READOUT: Kd (µM)
Reply numerically in µM, unit not repeated.

1) CC(/C=C/C(=O)NO)=C\[C@@H](C)C(=O)c1ccc(N(C)C)cc1	0.06

Would you kindly look at the next entry?
Give the measured Kd of "Nc1ccccc1NC(=O)c1ccc(CNc2nccc(-c3cccnc3)n2)cc1" .
170

====

Tested on: MIER3
Experiment: Chemoproteomic binding profiling, K562 cell extract, SAHA/ITF2357 probe matrix (Kd app), ELSA (ELM-SANT) domain protein
Set-up: species or system human
Details: ELSA (ELM-SANT) domain proteins
Kd strictly less than 200 µM = T. Otherwise F.

Example entries begin here.
1) Nc1ccccc1NC(=O)c1ccc(CNc2nccc(-c3cccnc3)n2)cc1	T
2) Nc1ccccc1NC(=O)CCCCCCC(=O)Nc1ccccc1	T
3) Cn1cc(C(=O)Cc2ccccc2)cc1C=CC(=O)NO	F
4) CC(=O)Nc1ccc(C(=O)Nc2ccccc2N)cc1	T

As a next step, examine the molecule that follows.
Field: below-cutoff. Rule: recorded Kd strictly less than 200 µM. Subject: "CCCCOc1ccc(CC(=O)NO)cc1"
T

====

Molecular target: ALDH2 (Homo sapiens, UniProt P05091)
Construct: endogenous in cells
Sequence (P05091 18-517): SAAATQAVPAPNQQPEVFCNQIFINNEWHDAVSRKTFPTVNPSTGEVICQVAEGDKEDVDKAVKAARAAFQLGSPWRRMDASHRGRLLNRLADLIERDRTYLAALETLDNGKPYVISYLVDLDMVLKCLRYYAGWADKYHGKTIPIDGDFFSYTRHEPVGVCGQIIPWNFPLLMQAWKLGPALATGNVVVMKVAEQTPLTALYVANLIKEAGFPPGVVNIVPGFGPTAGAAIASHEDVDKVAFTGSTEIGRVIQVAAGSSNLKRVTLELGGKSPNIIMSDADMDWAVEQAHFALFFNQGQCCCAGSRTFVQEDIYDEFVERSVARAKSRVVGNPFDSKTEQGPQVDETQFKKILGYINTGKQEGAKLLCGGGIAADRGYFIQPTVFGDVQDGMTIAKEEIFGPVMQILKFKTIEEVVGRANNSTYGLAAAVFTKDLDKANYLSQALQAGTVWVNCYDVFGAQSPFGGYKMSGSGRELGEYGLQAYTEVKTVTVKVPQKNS
Experiment: Competition binding assay in cell lysate, affinity matrix, MS
Settings: IC50, ALDH2; K-562 cell lysate
READOUT: IC50

Give the measured IC50 of O=C(CCCCCCC(=O)Nc1ccccc1)NO [SAHA, suberoylanilide hydroxamic acid] .
630 nM

====

Measured pKd (non-HDAC targets (e.g. BZW2, ISOC2, aldehyde dehydrogenases) (Homo sapiens))
API: returns pKd as number; meaning -log10 of concentration in mol/L.

1) O=C(/C=C/c1cccc(S(=O)(=O)Nc2ccccc2)c1)NO	5.70

Give the measured pKd of "CCCCOc1ccc(CC(=O)NO)cc1" .
3.83

Give the measured pKd of "Cn1cc(C(=O)Cc2ccccc2)cc1C=CC(=O)NO" .
4.72

Give the measured pKd of "O=C(/C=C/c1ccc(CN(CCO)CCc2c[nH]c3ccccc23)cc1)NO" .
6.06

Give the measured pKd of "Nc1ccccc1NC(=O)c1ccc(CNc2nccc(-c3cccnc3)n2)cc1" .
3.96

Give the measured pKd of "Cc1[nH]c2ccccc2c1CCNCc1ccc(/C=C/C(=O)NO)cc1" .
5.08

Give the measured pKd of "COc1ccc(Cn2ccc3ccc(C(=O)NO)cc32)cc1" .
4.89

====

Tested on: MIER1
Experiment: Chemoproteomic binding profiling, K562 cell extract, SAHA/ITF2357 probe matrix (Kd app), ELSA (ELM-SANT) domain protein
Parameters: species or system human
Settings: ELSA (ELM-SANT) domain proteins
Kd values, listed per item
Reply numerically in µM, unit not repeated.

1. Nc1ccccc1NC(=O)CCCCCCC(=O)Nc1ccccc1	50
2. CN(C)Cc1c(C(=O)NCCOc2ccc(C(=O)NO)cc2)oc2ccccc12	0.06

Would you kindly look at the next entry?
Give the measured Kd of "Nc1ccccc1NC(=O)c1ccc(CNc2nccc(-c3cccnc3)n2)cc1" .
73

====

Target: BZW2 (Homo sapiens, UniProt Q9Y6E2)
Construct: endogenous in cells
Sequence (Q9Y6E2 whole entry): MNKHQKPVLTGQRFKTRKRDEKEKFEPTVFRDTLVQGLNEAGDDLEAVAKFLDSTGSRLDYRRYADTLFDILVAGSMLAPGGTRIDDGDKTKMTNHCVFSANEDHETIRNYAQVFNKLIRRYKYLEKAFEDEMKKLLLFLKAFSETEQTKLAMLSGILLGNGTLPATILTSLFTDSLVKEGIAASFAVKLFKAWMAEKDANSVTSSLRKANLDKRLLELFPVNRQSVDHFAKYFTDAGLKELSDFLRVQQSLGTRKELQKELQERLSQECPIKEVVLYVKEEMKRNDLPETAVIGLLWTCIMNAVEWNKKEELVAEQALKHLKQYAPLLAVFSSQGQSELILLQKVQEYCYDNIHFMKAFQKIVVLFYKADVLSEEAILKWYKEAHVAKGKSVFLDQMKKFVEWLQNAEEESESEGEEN
Assay: Competition binding assay in cell lysate, affinity matrix, MS
Details: BZW2; Molt-4 cell lysate; read-out: IC50
READOUT: IC50 (nM)
Reply numerically in nM, unit not repeated.

Lab note: need IC50 with BZW2 (Homo sapiens, UniProt Q9Y6E2) for entry "CC(/C=C/C(=O)NO)=C\[C@@H](C)C(=O)c1ccc(N(C)C)cc1" , please look it up.
2450

====

Test system: NuRD complex
Test: Chemoproteomic binding profiling, K562 cell extract, SAHA/ITF2357 probe matrix (Kd app)
Design: species or system human
Settings: protein MTA3; NuRD complex; read-out: Kd^app MTA3
READOUT: Kd (µM)
Reply numerically in µM, unit not repeated.

Worked set:
1) CCCCOc1ccc(CC(=O)NO)cc1	626
2) O=C(/C=C/c1ccc(CN(CCO)CCc2c[nH]c3ccccc23)cc1)NO	0.02
3) CCCC(CCC)C(=O)O [valproate, valproic acid]	667
4) CN(C)Cc1c(C(=O)NCCOc2ccc(C(=O)NO)cc2)oc2ccccc12	0.05

Give the measured Kd of "Nc1ccccc1NC(=O)CCCCCCC(=O)Nc1ccccc1" .
69

====

Tested on: CoREST complex
Test: Chemoproteomic binding profiling, K562 cell extract, SAHA/ITF2357 probe matrix (Kd app)
Set-up: species or system human
Details: read-out: Kd^app HMG20B
Kd values, listed per item
Reply numerically in µM, unit not repeated.

1. CC(=O)Nc1ccc(C(=O)Nc2ccccc2N)cc1 [tacedinaline]	168

Would you kindly look at the next entry?
Give the measured Kd of Nc1ccccc1NC(=O)c1ccc(CNc2nccc(-c3cccnc3)n2)cc1 [Mocetinostat] .
62

====

Kd values, listed per item
Tested on: MiDAC complex (HDAC1/2, DNTTIP1, CDYL, MIDEAS)
Construct: Kd^app MIDEAS; other: protein MIDEAS; MiDAC complex; Kd^app DNTTIP1; other: protein DNTTIP1
Test: Chemoproteomic binding profiling, K562 cell extract, SAHA/ITF2357 probe matrix (Kd app)
Design: species or system human
Settings: protein MIDEAS, read-out: Kd^app MIDEAS

1. COc1ccc(Cn2ccc3ccc(C(=O)NO)cc32)cc1 [PCI-34051]	> 59.7 µM
2. Nc1ccccc1NC(=O)CCCCCCC(=O)Nc1ccccc1 [BML-210]	> 85 µM

Give the measured Kd of Cn1cc(C(=O)Cc2ccccc2)cc1C=CC(=O)NO [MC-1293] .
> 10 µM
